Source listed as ChEMBL document CHEMBL4513135.

Measured Inhibition, listed per entry for reference.
Tested on: Klebsiella pneumoniae
Details: Concentration 32 ug.mL-1; ASSAY_TEST Inhibition of Bacterial Growth; detection method Absorption (OD600); MEDIA CAMHB; plate type 384well; NBS; CORNING #3640; time 18 hr
Description: Antibacterial activity against Klebsiella pneumoniae MDR ATCC 70063 (CO-ADD:GN_003); MIC in CAMBH media using NBS plates, by OD(600)
Entries with a potency or affinity are not part of this list.
A number alone suffices; assume %.

Examples with answers:
N#CC1=C(N)Oc2ccc3ccccc3c2C1; -0.19
CC(=O)NC=C1C(=O)OC(C)(C)OC1=O; 18.67

query: What Inhibition value was documented for this compound, COc1cccc(C2C(C#N)=C(N)Oc3[nH]nc(C)c32)c1 (stereo not drawn) ?
result: 26.54

query: Need Inhibition, item `N#Cc1c(N)nc(N)c(C#N)c1-c1ccccc1`
result: 13.82

query: // Inhibition lookup, key: `N#Cc1c(N)nc(NCCCCC2CCN(Cc3ccccc3)CC2)c(C#N)c1-c1ccccc1`
result: 9.09

query: # input compound: COc1ccc(C2C(C#N)=C(N)Oc3c2ccc2ccccc32)cc1 (stereo not drawn) ; wanted: its Inhibition
result: 9.52

query: Find the recorded Inhibition belonging to COc1cc(C2CC2(N)C(=O)O)ccc1O (stereo not drawn) and report it.
result: 3.5

query: Entry under review: COc1cc(C2C(C#N)=C(N)Oc3ccc4ccccc4c32)ccc1O (stereo not drawn) . Reported Inhibition?
result: 5.47

query: Quick one: Inhibition of CCOC(=O)C1=C(C)Oc2nc3c(c(N)c2C1c1nccn1C)CCC3 (stereo not drawn) ?
result: 4.43

query: Query: Inhibition; subject: `O=C(Cc1cccc2ccccc12)N/N=C/c1c[nH]c2ccccc12`
result: 10.96

query: Would you kindly share the measured Inhibition for `CCOC(=O)c1c(C)nc2nc3c(c(N)c2c1-c1ccc(OC)cc1)CCCCCC3` ?
result: 2.79

query: Field request: Inhibition | item: `CC1=NC(=Cc2ccccc2)C(=O)S1`
result: 11

query: Can you look up the measured Inhibition of `C=C1CN(C)c2c(C#N)c(-c3ccccc3)c(C#N)c(=N)n21` for me?
result: 8.43

query: Need Inhibition, item `CCOC(=O)CCc1c[nH]c2ccccc12`
result: -13.33

query: Please report the recorded Inhibition for `O=C(NNCCc1ccccc1)c1cc2ccccc2[nH]1` .
result: 0.93

query: Given the entry `Cc1ccc(CNNC(N)=O)cc1.Cl` , report its measured Inhibition.
result: 11.02

query: Which Inhibition is reported for this compound? `C#CCN(C)c1nc(OC)c(C#N)cc1C#N`
result: 1.2

query: Please give the measured Inhibition for this compound: `CCOC(=O)c1c(C)[nH]c2ccc(OC)cc12`
result: 6.33

query: Please look up its Inhibition: CCOC(=O)C1=C(C)OC(N)=C(C#N)C1c1ccccc1 (stereo not drawn)
result: 11.23

query: What measured Inhibition goes with `C#CCN(C)c1nc(NC2CCN(Cc3ccccc3)CC2)c(C#N)c(-c2ccccc2)c1C#N` ?
result: -4.36

query: Reported Inhibition for Cc1ccc(C2CC2(N)C(=O)O)cc1.Cl (stereo not drawn) : what is it?
result: 13.97

query: Item under review: `CN1C/C(=C\Cl)n2c1c(C#N)cc(C#N)c2=O` . Reported Inhibition?
result: 5.49

query: Could you share which Inhibition value was measured for `O=C(NNCc1c[nH]c2ccccc12)c1cccc2ccccc12` ?
result: 7.23
